system: Staphylococcus aureus; assay: Checkerboard synergy (FICI) of antibiotics with SP-BIM; assay type: cell-based; details: Staphylococcus aureus, 24 h, Staphylococcus aureus; antibiotic alone; SP-BIM 13 checkerboard; read-out: MIC antibiotic only
Recorded MIC for the following molecules
Quick note: give the figure in µg/mL, leave out the unit.

INSERT INTO assay_data (smiles_repr, units_symbol, observed_result) VALUES
  ('CC[C@H]1OC(=O)[C@H](C)[C@@H](O[C@H]2C[C@@](C)(OC)[C@@H](O)[C@H](C)O2)[C@H](C)[C@@H](O[C@@H]2O[C@H](C)C[C@H](N(C)C)[C@H]2O)[C@](C)(O)C[C@@H](C)C(=O)[C@H](C)[C@@H](O)[C@]1(C)O', 'µg/mL', 0.1),
  ('CC1(C)S[C@@H]2[C@H](NC(=O)[C@H](N)c3ccccc3)C(=O)N2[C@H]1C(=O)O', 'µg/mL', 0.5),
  ('COc1cc(Cc2cnc(N)nc2N)cc(OC)c1OC', 'µg/mL', 1),
  ('C[C@H]1c2cccc(O)c2C(=O)C2=C(O)[C@]3(O)C(=O)C(C(N)=O)=C(O)[C@@H](N(C)C)[C@@H]3[C@@H](O)[C@@H]21', 'µg/mL', 8),
  ('O=C(O)c1cn(C2CC2)c2cc(N3CCNCC3)c(F)cc2c1=O', 'µg/mL', 1);

Next, consider the following molecule.
**Query** Report MIC for `[H]/N=C(/N)N[C@H]1[C@H](O)[C@@H](O)[C@H](O[C@@H]2O[C@@H](C)[C@](O)(C=O)[C@H]2O[C@@H]2O[C@@H](CO)[C@H](O)[C@@H](O)[C@@H]2NC)[C@@H](N/C(N)=N\[H])[C@@H]1O` please.
**Result** 8
